FYI, the data here is from the domain aggregation screens of Martell et al. (2025).

Assign soluble fraction (log2) to each entry below.
- PROCEDURE_SUMMARY: soluble fraction after stress (log2 fold change); higher = more stays soluble; pooled small domains, quantitative proteomics
- CONDITION_PARAMETERS: stress: pH 4
Lab note: jot the number down without any unit.

Value lookup for soluble fraction (log2); key = "HMSDSISLTLNGDLRRFRAHATIADLVRDIGLDPVKVAVERNLEIVSRSTLEDVVLADGDRLEIVHFV"
-2.67

Value lookup for soluble fraction (log2); key = "HMFTLDDLQATYDIFERAEQNSDAMLAFQKVITAEGLDFDLTSPQGIVDFFKGAAPTEIYDLYEAS"
-0.956

Look at this sequence and give its reported soluble fraction (log2). "HMIDAAHLEKAILSLPEGARAVFVLIETEGFAHREVAELLGISEGTSKSQLNYAKKRLREILV"
-0.0621

Look up soluble fraction (log2) for this sequence: "HMTKAEVLLDLQQRIISEEFLPGSWLVERDLSSEYGLSRTPIREILNKLVILGLISVQKNRGYQVR"
-0.792

// soluble fraction (log2) lookup, key: "HMTRQPSAKEHAVLTAVKEGLRRDGRAPTVRALADMTGAASTSTVQRRISALIDLGLLRRTDGTLEVVE"
0.202

Record request: soluble fraction (log2) value, item "HMSMNGNMIHATVIWKGRYFLVKMFFPQLTKPKRAEVQAQIEKAYPGSRVASYHITDYKPGEQFLHV"
-0.156

What does the record list as soluble fraction (log2) for "HMSILYNAVKGTLVSSGALTADSWYKISSFGTASALPALKVGSIFKTPEGAGDAITLASGDSVYPLTLT" ?
0.021

Dear colleague, I am looking for the recorded soluble fraction (log2) of the following sequence: "HMPPSRFNELSMWFQEQLTEAGLKVDSGALKMLIEWLGQDQARLPSIIEVLVSTYGTKKKLTVDEIEPFL"
-1.02

---

- PROCEDURE_SUMMARY: soluble fraction after stress (log2 fold change); higher = more stays soluble; pooled small domains, quantitative proteomics
- CONDITION_PARAMETERS: stress: pH 4
Returns YES if the recorded soluble fraction (log2) is greater than or equal to 0.04, and NO otherwise.

Given the entry "HMGSLNDQVMKYIDALPSAFNKRELDFLIERGVKEFALNGEYLEKAIINEYKLTADTYHRER" , answer whether its soluble fraction (log2) meets or surpasses 0.04.
YES

Reported soluble fraction (log2) reaches at least 0.04 for "HMASVRPVAPPDPKTHTRLTYRIRRGDTLERIGRRYRVSIAEIQAWNTLRDPGDILAGQRLVIWIPTS" ?
YES

Is reported soluble fraction (log2) greater than or equal to 0.04 here: "HMEDPLGDLIGRIAAATGRPVQDIVAEVHRVVTDHFDGNLRVEAAAVILARKYGVAFEDKLSALQRSV"
NO

Evaluate "HMVLPELRLQGLPTAVLRLINRATALADDYRRLMEIAEDGRIDEWEAPEFERISENIQRVIAAGFEVL" : soluble fraction (log2) at minimum 0.04?
YES

Assess whether reported soluble fraction (log2) for "HMPSPSTLAKVDPFLLVTNADSLLMARPDDSELRAAIITAHINLAKTNNSVDHYKEVLKIEPQNALANYN" sits at 0.04 or higher.
YES

Does soluble fraction (log2) meet or surpass 0.04 for "HMFLSQQDINRANAASVTDMGDIIRRTFERNAAEINGLELSDAEKKDAVKQMATLATTALKTAAGAVNPY" ?
YES

# check: soluble fraction (log2) of "HMQGISGIERSLLDALAFEPAGLDALQARTGLDTPTLQALLMGLELQGHVARLPGSLFQRLVR" is greater than or equal to 0.04
NO

# check: soluble fraction (log2) of "HMVDLLDETLIEFYAFANNLIKDLETNSEKYGGMSQFEKELIFNEQITQYQRKLKIDLQDEVG" is greater than or equal to 0.04
NO
